Data provenance is paper PMC12509328.

assay-explanation: Glucuronidation kinetics in human liver S9
measurement-setup: human, pH 7.4
measured-attribute: Km (µM)
Report as a plain number; the unit µM is understood.

[Q] Please report the recorded Km for CC(C)(c1ccc(O)cc1)c1ccc(O)cc1 .
[A] 13.1

----------
assay-explanation: Glucuronidation kinetics in rat liver S9
measurement-setup: male, Sprague-Dawley, rat, rat liver S9, pH 7.4
measured-attribute: Km (µM)
Report as a plain number; the unit µM is understood.

[Q] Please report the recorded Km for Oc1ccc(C(c2ccc(O)cc2)(C(F)(F)F)C(F)(F)F)cc1 [BPAF, Bisphenol AF] .
[A] 49.7

----------
System: Human Liver S9
assay-explanation: Glucuronidation kinetics in human liver S9
measurement-setup: human liver S9 fractions; GraphPad Prism fitting
measured-attribute: Vmax hepatic glucuronidation (nmol/min/mg)
Report as a plain number; the unit nmol/min/mg is understood.

* CCC(C)(c1ccc(O)cc1)c1ccc(O)cc1 | 5.81
* CC(C)(c1ccc(O)cc1)c1ccc(O)cc1 | 4.06
* CC(c1ccc(O)cc1)c1ccc(O)cc1 | 3.42

// switching to the query molecule
[Q] Please report the recorded Vmax hepatic glucuronidation for CC(C)(c1ccc(O)cc1)c1cccc(C(C)(C)c2ccc(O)cc2)c1 .
[A] 4.89

----------
Tested on: Human Liver S9
assay-explanation: Glucuronidation kinetics in human liver S9
measurement-setup: read-out: Km hepatic glucuronidation; human liver S9 fractions; GraphPad Prism fitting
Km overview
Remember to put the unit after the number in your answer.

• CC(c1ccc(O)cc1)c1ccc(O)cc1 [BPE, Bisphenol E] = 51.3 µM

// switching to the query molecule
[Q] Please report the recorded Km for CC(C)(c1ccc(O)cc1)c1cccc(C(C)(C)c2ccc(O)cc2)c1 [BPM, Bisphenol M] .
[A] 20.2 µM
